# TARGET OR SYSTEM: human recombinant HDAC6 (Homo sapiens, UniProt Q9UBN7)
# Construct: purchased Calbiochem 382180
# Sequence (Q9UBN7 whole entry): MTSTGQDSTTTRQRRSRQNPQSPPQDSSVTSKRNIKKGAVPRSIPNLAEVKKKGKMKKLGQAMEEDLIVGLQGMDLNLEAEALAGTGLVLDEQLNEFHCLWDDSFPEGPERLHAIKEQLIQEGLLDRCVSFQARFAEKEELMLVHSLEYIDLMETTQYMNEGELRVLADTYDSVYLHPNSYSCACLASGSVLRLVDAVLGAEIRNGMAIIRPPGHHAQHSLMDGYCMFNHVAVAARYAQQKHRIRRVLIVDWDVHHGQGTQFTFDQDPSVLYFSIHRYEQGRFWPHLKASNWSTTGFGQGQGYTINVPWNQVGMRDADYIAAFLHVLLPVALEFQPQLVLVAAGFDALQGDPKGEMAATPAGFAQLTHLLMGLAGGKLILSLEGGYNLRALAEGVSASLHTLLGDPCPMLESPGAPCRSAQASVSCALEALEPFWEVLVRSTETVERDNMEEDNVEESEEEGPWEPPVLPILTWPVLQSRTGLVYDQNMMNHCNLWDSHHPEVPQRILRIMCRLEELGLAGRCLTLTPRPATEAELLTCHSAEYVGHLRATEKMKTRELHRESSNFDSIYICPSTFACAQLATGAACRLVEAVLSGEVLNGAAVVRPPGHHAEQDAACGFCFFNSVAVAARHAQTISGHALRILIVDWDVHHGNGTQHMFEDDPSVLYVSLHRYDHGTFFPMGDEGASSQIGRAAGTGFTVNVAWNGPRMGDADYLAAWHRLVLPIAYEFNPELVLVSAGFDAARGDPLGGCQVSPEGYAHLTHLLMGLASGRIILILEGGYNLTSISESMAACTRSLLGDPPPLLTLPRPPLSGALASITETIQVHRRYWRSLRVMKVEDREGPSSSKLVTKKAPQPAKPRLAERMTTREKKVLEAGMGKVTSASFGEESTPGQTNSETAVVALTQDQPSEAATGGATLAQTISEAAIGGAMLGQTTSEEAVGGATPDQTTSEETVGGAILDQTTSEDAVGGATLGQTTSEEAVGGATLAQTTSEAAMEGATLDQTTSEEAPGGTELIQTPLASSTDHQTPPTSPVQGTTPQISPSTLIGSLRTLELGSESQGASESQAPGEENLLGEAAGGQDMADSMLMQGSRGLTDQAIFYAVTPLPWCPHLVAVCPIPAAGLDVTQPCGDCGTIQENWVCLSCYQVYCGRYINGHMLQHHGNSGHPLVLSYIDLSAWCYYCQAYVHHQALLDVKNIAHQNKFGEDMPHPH
# ASSAY OVERVIEW: HDAC6 enzyme activity inhibition assay (in vitro, fluorimetric)
# Type: biochemical
# PARTICULARS: HDAC6 selectivity over HDAC1
EXPERIMENTAL READOUT: HDAC6 selectivity (fold)
Entry rule: numbers only, all in fold.

- C[C@@H]1CN(Cc2ccc(C(=O)NO)cc2)C[C@H](C)N1C(=O)c1cnccn1 [Compound 404]: 30
- C[C@@H]1CN(Cc2ccc(C(=O)NO)cc2)C[C@H](C)N1C(=O)Nc1ccccc1 [Compound 159]: 109

Switching to the query record.
Incoming: Find the recorded HDAC6 selectivity (fold) belonging to C[C@@H]1CN(Cc2ccc(C(=O)NO)cc2)C[C@H](C)N1C(=O)Cc1ccccc1 [Compound 146] and report it.
Outgoing: 314

====

We begin with a simple list: items and their reported IC50.
# TARGET OR SYSTEM: human recombinant HDAC6 (Homo sapiens)
# ASSAY OVERVIEW: HDAC6 enzyme activity inhibition assay (in vitro, fluorimetric)
# PARTICULARS: human recombinant HDAC6, fluorimetric kit, same protocol as HDAC1
Respond with the bare value in nM.

• C[C@@H]1CN(Cc2ccc(C3=CCC(C)(C)CC3)cc2)C[C@H](C)N1Cc1ccc(C(=O)NO)cc1 = 2820
• C[C@@H]1CN(Cc2ccccc2C2=CCOCC2)C[C@H](C)N1Cc1ccc(C(=O)NO)cc1 = 351
• C[C@@H]1CN(C(=O)Nc2cccc(-n3cccc3)c2)C[C@H](C)N1Cc1ccc(C(=O)NO)cc1 = 5
• CC(C)CC(=O)N1[C@H](C)CN(Cc2ccc(C(=O)NO)cc2)C[C@@H]1C = 90

Incoming: IC50 for C[C@@H]1CN(Cc2ccc(C(=O)NO)cc2)C[C@H](C)N1Cc1cccc(CN2CCN(S(C)(=O)=O)CC2)c1 ?
Outgoing: 65

Incoming: Another compound to look at: CC(C)N1CCN(Cc2cccc(CN3[C@H](C)CN(Cc4ccc(C(=O)NO)cc4)C[C@@H]3C)c2)CC1
Outgoing: 82

Incoming: Subsequent entry: C[C@@H]1CN(Cc2ccc(C(=O)NO)cc2)C[C@H](C)N1C(=O)Cc1cccc(Cl)c1
Outgoing: 120

Incoming: Moving on to the next compound: C[C@@H]1CN(Cc2cc3cc(C(=O)NO)ccc3o2)C[C@H](C)N1Cc1ccccc1
Outgoing: 810

Incoming: Another compound to check: C[C@@H]1CN(Cc2ccc(CC(=O)NO)cc2)C[C@H](C)N1Cc1ccccc1
Outgoing: 85

Incoming: Do the same for C[C@@H]1CN(C(=O)Nc2ccccc2)C[C@H](C)N1Cc1ccc(C(=O)NO)cc1 please
Outgoing: 79

====

# TARGET OR SYSTEM: human recombinant HDAC6 (Homo sapiens)
# ASSAY OVERVIEW: HDAC6 enzyme activity inhibition assay (in vitro, fluorimetric)
# PARTICULARS: human recombinant HDAC6, fluorimetric kit, same protocol as HDAC1
pIC50: −log10 of the molar value.
Label criterion met when pIC50 >= 7; otherwise criterion not met.

Answered examples (8):
* C[C@@H]1CN(C(=O)c2cccc(CN3CCCC3)c2)C[C@H](C)N1Cc1ccc(/C=C/C(=O)NO)cc1 | criterion not met
* C[C@@H]1CN(Cc2ccc(C(=O)NO)cc2)C[C@H](C)N1Cc1ccc(CN2CCCC2)cc1 | criterion met
* C[C@@H]1CN(Cc2ccc(C(=O)NO)cc2)C[C@H](C)N1C(=O)Nc1cccc(Cl)c1 | criterion not met
* C[C@@H]1CN(Cc2ccc(C(=O)NO)cc2)C[C@H](C)N1CCc1ccccc1 | criterion not met
* C[C@@H]1CN(Cc2ccc(C(=O)NO)cc2F)C[C@H](C)N1Cc1ccccc1 | criterion met
* COc1ccc(C(=O)N2[C@H](C)CN(Cc3ccc(C(=O)NO)cc3)C[C@@H]2C)cc1 | criterion met
* C[C@@H]1CN(S(=O)(=O)c2ccc(C(=O)NO)cc2)C[C@H](C)N1Cc1ccccc1 | criterion not met
* C[C@@H]1CN(CCCCCC(=O)NO)C[C@H](C)N1Cc1ccccc1 | criterion not met

Incoming: Say whether C[C@@H]1CN(Cc2cccc(C(F)(F)F)c2)C[C@H](C)N1Cc1ccc(C(=O)NO)cc1 shows pIC50 of 7 or more.
Outgoing: criterion not met

Incoming: How about this molecule: C[C@@H]1CN(C(=O)Cc2cccc(Cl)c2)C[C@H](C)N1Cc1ccc(C(=O)NO)cc1
Outgoing: criterion not met

Incoming: Quick one: C[C@@H]1CN(C(=O)Nc2ccc3c(c2)CCO3)C[C@H](C)N1Cc1ccc(C(=O)NO)cc1
Outgoing: criterion not met

Incoming: Further, for C[C@@H]1CN(Cc2ccc(C(=O)NO)cc2)C[C@H](C)N1Cc1cccc(-c2ccoc2)c1 ?
Outgoing: criterion met

Incoming: Here is the next molecule: C[C@@H]1CN(Cc2ccc(C(=O)NO)cc2)C[C@H](C)N1Cc1ccccc1C1=CCC(C)(C)CC1
Outgoing: criterion not met

Incoming: Cool, now Cc1cccc(NC(=S)N2C[C@@H](C)N(Cc3ccc(C(=O)NO)cc3)[C@@H](C)C2)c1
Outgoing: criterion not met

Incoming: What about C[C@@H]1CN(C(=O)c2ccco2)C[C@H](C)N1Cc1ccc(C(=O)NO)cc1 ?
Outgoing: criterion not met

Incoming: // repeat for C[C@@H]1CN(Cc2ccc(C(=O)NO)cc2)C[C@H](C)N1C(=O)c1ccccc1 and report
Outgoing: criterion met
